assay: gradient 5% acetonitrile 3 min, to 50% in 2 min, to 85% in 15 min, held 3 min, 100 µL/min
study-conditions: column: Zorbax Extend-C18 2.1 x 50 mm; eluents: water / acetonitrile, 0.1% formic acid
observed-property: RP-LC retention time (s)

Consider the following illustrative entries.
>>> df
                                   molecule  unit_label  number
0          CCCc1cc(SCc2ccc(C(=O)OC)cc2)ncn1           s     992
1  Cn1nnnc1SCC(=O)Nc1nc(-c2ccccc2)c(-c2ccccc2)o1           s     888
2  CCc1ccc(CNC(=O)C2CCCN(C(=O)c3[nH]c(C)c(C(=O)OC)c3C)C2)cc1 (centres undefined)           s     845

P: Cc1ccc(N(C)C(=O)C2CCCN(c3ncnc4c3nc3n4CCCCC3)C2)cc1C (centres undefined)
Q: CCc1nncn1C1CCN(C(=O)c2cc(-c3cccs3)[nH]n2)C1 (centres undefined)
Compare P and Q and name the one whose reported RP-LC retention time is smaller. Returns: label corresponding to the selected item. Q
(Q: 595 s, P: 897 s)

P: c1ccc(-c2nc3cc(-c4noc(-c5cccnc5)n4)ccc3o2)cc1
Q: CCC(C(=O)Nc1ccc(OC)cc1)n1cnc2nc3c(cc2c1=O)CCCC3 (centres undefined)
Compare P and Q and name the one whose reported RP-LC retention time is smaller. Returns: label corresponding to the selected item. Q
(Q: 770 s, P: 1290 s)

I: CCOCCCNC(=O)C(C)Sc1ccc(=O)n(-c2ccc(C)c(Cl)c2)n1 (centres undefined)
II: Cc1cccc2cc(-c3noc(-c4ccccc4)n3)c(NCCc3ccc(S(N)(=O)=O)cc3)nc12
Exercise: compare I and II ; which one has the greater RP-LC retention time? Returns: label corresponding to the selected item. II

1: CC1=C(c2ccc(F)cc2)S(=O)(=O)N=C1N1CCCN(C(=O)NC(C)(C)C)CC1
2: Cc1ccc(-c2cn3c(CC(=O)N4CCc5ccccc5C4)csc3n2)cc1C
3: Fc1ccccc1N1CCN(c2ncccc2-c2nc(-c3ccccc3)no2)CC1
Please list these in order of increasing RP-LC retention time. Thank you! A complete answer lists every label in the requested sequence. 1, 2, 3

P: O=C(Nc1ccccc1Br)N1CCN(CCn2cnc3cccnc32)CC1
Q: CCc1ccc(NC(=O)Nc2cnn(-c3ncc(N4CCCC4)cn3)c2)cc1
Exercise: compare P and Q ; which one has the greater RP-LC retention time? Returns: label corresponding to the selected item. Q
(Q: 880 s, P: 595 s)

I: O=C(NC1CCCC1)N1CCc2nc(-c3ccccc3)ncc2C1
II: Cc1ccc(C)c(-c2cc3c(=O)n(Cc4nc(-c5ccc(Br)cc5)no4)ncn3n2)c1
Compare I and II and name the one whose reported RP-LC retention time is smaller. Returns: label corresponding to the selected item. I
(I: 822 s, II: 1320 s)

A: O=C(CSc1nc(N2CCCCC2)nc2ccccc12)Nc1cccc(Br)c1
B: CC(C)CC(=O)Nc1ccc(S(=O)(=O)N2CCCC2c2nc(-c3ccc(Cl)cc3)no2)cc1 (centres undefined)
Compare A and B and name the one whose reported RP-LC retention time is smaller. Returns: label corresponding to the selected item. A
(A: 812 s, B: 1160 s)

---

assay: gradient 5% acetonitrile 3 min, to 50% in 2 min, to 85% in 15 min, held 3 min, 100 µL/min
study-conditions: column: Zorbax Extend-C18 2.1 x 50 mm; eluents: water / acetonitrile, 0.1% formic acid
observed-property: RP-LC retention time (s)

>>> df
                                   compound     observed_property  number
0  O=C(Cn1c(-c2cccs2)cc2cc(Cl)ccc21)NCCCN1CCOCC1  RP-LC retention time     726
1  CC(C)CC(=O)Nc1ccc2nc(N3CCN(c4cccc(Cl)c4)CC3)cc(C(=O)O)c2c1  RP-LC retention time     762
2   COc1ccc(C(=O)N2CCN(C(=O)c3ccco3)CC2)nn1  RP-LC retention time     576
3  CC(C)(C)NC(=O)N[C@H](C(=O)N1C[C@H]2[C@@H]([C@H]1C(=O)NC(CC1CCC1)C(=O)C(N)=O)C2(C)C)C(C)(C)C (stereo not given in full)  RP-LC retention time    1020
4  COC1CN(C2CCN(C(=O)c3sc(C)nc3C)CC2)C12CCOCC2 (stereo not given)  RP-LC retention time     796

---

assay: gradient 5% acetonitrile 3 min, to 50% in 2 min, to 85% in 15 min, held 3 min, 100 µL/min
study-conditions: column: Zorbax Extend-C18 2.1 x 50 mm; eluents: water / acetonitrile, 0.1% formic acid
observed-property: RP-LC retention time (s)

In [3]: df
Out[3]:
                                    compound     observed_property  unit_label  number
 0  CCN(CC)S(=O)(=O)c1cc(-c2nnc(-c3ccc(OC)cc3)o2)ccc1C  RP-LC retention time           s    1030
 1  O=C(NC1CCN(c2cc(-c3ccc(F)cc3)[nH]n2)C1)c1cccs1 (stereo not drawn)  RP-LC retention time           s     699
 2  O=C(NCCc1c[nH]c2ccccc12)C1CC(=O)N(Cc2ccccc2)C1 (stereo not drawn)  RP-LC retention time           s     736
 3  Cc1cccc(C(=O)N2CCN(c3nnc4cccc(C)n34)CC2)c1  RP-LC retention time           s     680
 4  O=C(Cn1c(=O)nc(N2CCCCC2)c2ccccc21)Nc1ccc2c(c1)OCCO2  RP-LC retention time           s     728
 5  CC1(C)C(=O)N(CC(=O)Nc2ccc(F)c(Cl)c2)c2ccccc21  RP-LC retention time           s     966
 6  O=C(NCCc1cccs1)c1cccc2c1CCN2C(=O)Nc1ccccc1  RP-LC retention time           s     895
 7  Cc1nn(CC(=O)NCCN(C)C2CCCCC2)c(=O)c2c(C)n(-c3ccccc3)nc12  RP-LC retention time           s     653
 8  CN(C)C(=O)c1ccc2oc(CN3CCN(C(=O)NCc4ccco4)CC3)nc2c1  RP-LC retention time           s     582
 9                C#CCSc1nc(=O)n2ccc(C)cc2n1  RP-LC retention time           s     645
10  CN(C1CCC1)C1CCc2nn(Cc3ccccc3)c(=O)n2CC1 (stereo not drawn)  RP-LC retention time           s     590
11  Cc1nn(-c2ccc(N3CCOCC3)nn2)c(C)c1CCC(=O)N1CCN(c2ccccn2)CC1  RP-LC retention time           s     578
12  O=S(=O)(c1cc(-c2nnc(-c3ccc(F)cc3)o2)ccc1Cl)N1CCCC1  RP-LC retention time           s    1070
13  COc1ccc(-c2cn3c(CC(=O)Nc4cccnc4)csc3n2)cc1OC  RP-LC retention time           s     581
14  CCCNC(=O)C1CCN(c2ccc(SCC(=O)Nc3cc(OC)ccc3OC)nn2)CC1  RP-LC retention time           s     662
15  CN(C)C(=O)c1ccc2c(c1)N(CC(=O)N1CCCCC1)C(=O)C1CCCCN21 (stereo not drawn)  RP-LC retention time           s     701
16  Cc1nc(-c2ccc(N3CCN(C(=O)c4nn(C)c5ccccc45)CC3)nc2)sc1C  RP-LC retention time           s     966
17  COCC(=O)N(CC(=O)N1CCc2sccc2C1COc1cccc(OC)c1)C1CC1 (stereo not drawn)  RP-LC retention time           s     800
18  COC1C(=O)N(c2cccc(F)c2)C12CCN(C(=O)Nc1ccccc1F)CC2 (stereo not drawn)  RP-LC retention time           s     890
19  O=C(CN1C(=O)NC(c2ccc(Cl)cc2)C2=C1COC2=O)Nc1ccc(C(F)(F)F)cc1 (stereo not drawn)  RP-LC retention time           s     895
20  CCn1cc(C)c(C(=O)O)c1CC(=O)N(C)c1cccc(Cl)c1  RP-LC retention time           s     792
21  COc1ccc(-c2nnc(N3CCC(C(=O)NC(C)c4ccc(OC)cc4)CC3)o2)cc1 (stereo not drawn)  RP-LC retention time           s     815
22  COc1cccc(Oc2ncc(-c3cccc(C(=O)NC4CC4)c3)cn2)c1  RP-LC retention time           s     797

---

assay: gradient 5% acetonitrile 3 min, to 50% in 2 min, to 85% in 15 min, held 3 min, 100 µL/min
study-conditions: column: Zorbax Extend-C18 2.1 x 50 mm; eluents: water / acetonitrile, 0.1% formic acid
observed-property: RP-LC retention time (s)

In [3]: df
Out[3]:
                           smiles_structure  unit_label  number
0  CCc1nnc2cc(N3CCN(S(=O)(=O)c4ccc(C(C)C)cc4)CC3)cnn12           s     820
1  Cc1cccc(-c2nc3ccccn3c2NC(=O)Nc2cc(F)ccc2F)c1           s     715
2  Cc1cnc(C2CCC2)n1CC1CCN(C(=O)NC2CCCCC2)CC1           s     657
